Just for reference, the supplement of paper PMC10132981 is where these values come from.

A collection of compounds and their measured EC50 for viability
- Test system: SW620 WT
- assay.method.text: EC50 for viability (resazurin, 96 h)
- condition.description: RPMI+GlutaMAX (5% dFBS, 1% P/S); metabolite supplement: Adenosine
readout.kind: EC50 for viability (nM)

compound | readout.kind | reading.qualifier | reported.value
Cc1c(N2CCN(C)[C@@H](C)C2)ccc2c3c(c(=O)oc12)CN(C(=O)c1ccc(NS(C)(=O)=O)c(OC(F)(F)F)c1)CC3 | EC50 for viability | > | 10000
Nc1nc(N)c(CC(=O)Nc2cnc(C(=O)N[C@@H](CCC(=O)O)C(=O)O)c(F)c2)c(=O)[nH]1 [TH9619] | EC50 for viability | = | 18.3
CN(Cc1cnc2nc(N)nc(N)c2n1)c1ccc(C(=O)N[C@@H](CCC(=O)O)C(=O)O)cc1 [methotrexate] | EC50 for viability | = | 34.5
Nc1nc(N)c(NC(=O)Nc2cnc(C(=O)N[C@@H](CCc3nnn[nH]3)C(=O)O)c(F)c2)c(=O)[nH]1 | EC50 for viability | = | 16.6

###

- Test system: SW620
- assay.method.text: EC50 for viability (resazurin, 96 h)
- condition.description: RPMI+GlutaMAX (10% FBS, 1% P/S); metabolite supplement: Folic acid

molecule | EC50 for viability (µM)
O=c1[nH]cc(F)c(=O)[nH]1 | 4.72
Nc1nc(N)c(CC(=O)Nc2cnc(C(=O)N[C@@H](CCC(=O)O)C(=O)O)c(F)c2)c(=O)[nH]1 | 4
CN(Cc1cnc2nc(N)nc(N)c2n1)c1ccc(C(=O)N[C@@H](CCC(=O)O)C(=O)O)cc1 [methotrexate] | 0.0963
Nc1nc(N)c(NC(=O)Nc2cnc(C(=O)N[C@@H](CCc3nnn[nH]3)C(=O)O)c(F)c2)c(=O)[nH]1 | 0.597

###

// values below are reported EC50 for viability
- Tested on: SW620
- assay.method.text: EC50 for viability (resazurin, 96 h)
- condition.description: RPMI+GlutaMAX (5% dFBS, 1% P/S); metabolite supplement: Vehicle

molecule | EC50 for viability / nM
CN(Cc1cnc2nc(N)nc(N)c2n1)c1ccc(C(=O)N[C@@H](CCC(=O)O)C(=O)O)cc1 [methotrexate] | 8.7
Nc1nc(N)c(NC(=O)Nc2cnc(C(=O)N[C@@H](CCc3nnn[nH]3)C(=O)O)c(F)c2)c(=O)[nH]1 | 14.7
Cc1c(N2CCN(C)[C@@H](C)C2)ccc2c3c(c(=O)oc12)CN(C(=O)c1ccc(NS(C)(=O)=O)c(OC(F)(F)F)c1)CC3 | 553
Nc1nc(N)c(CC(=O)Nc2cnc(C(=O)N[C@@H](CCC(=O)O)C(=O)O)c(F)c2)c(=O)[nH]1 | 400
